Target: human P2X3 receptor (Homo sapiens (Human), UniProt P56373)
Sequence (P56373 whole entry): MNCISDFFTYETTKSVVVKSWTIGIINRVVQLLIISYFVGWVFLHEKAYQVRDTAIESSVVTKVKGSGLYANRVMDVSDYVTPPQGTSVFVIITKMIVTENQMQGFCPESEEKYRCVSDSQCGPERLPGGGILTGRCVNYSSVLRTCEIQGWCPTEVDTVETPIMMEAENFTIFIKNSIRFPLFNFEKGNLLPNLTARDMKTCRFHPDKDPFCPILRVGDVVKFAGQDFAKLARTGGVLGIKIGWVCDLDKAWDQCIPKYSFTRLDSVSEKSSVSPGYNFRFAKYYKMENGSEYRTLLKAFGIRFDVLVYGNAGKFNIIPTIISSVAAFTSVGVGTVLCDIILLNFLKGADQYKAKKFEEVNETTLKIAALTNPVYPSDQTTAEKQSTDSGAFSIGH
Assay: Evaluation of human P2X3 receptor inhibitory activity (Test Example 1-2, FLIPR 384, 384-well, 150 nM ATP)
Format: cell-based
Details: human P2X3 receptor in C6BU-1 cells; Test Example 1-2 (compounds I-301 to I-483); read-out: P2X3 IC50
Kindly state IC50 for each of the entries shown.
Numbers only here, please. The scale is nM.

Answer with reported IC50 of COCCn1c(=O)cc(Nc2ccc(Oc3cccc(C(=O)O)n3)c(C)n2)n(Cc2ccc(Cl)cc2)c1=O 14

Find the measured IC50 of Cc1cc(Oc2ccc(/N=c3\[nH]cc(NC(=O)C4CCOCC4)c(=O)n3Cc3ccc(Cl)cc3)cc2C)no1 and report it. 12

Item COC(=O)[C@@H](C)Cn1c(=O)cc(Nc2ccc(Oc3ccc(F)cn3)c(C)n2)n(Cc2ccc(Cl)cc2)c1=O : provide IC50 7

For the compound O=C(NCC1CC1)c1c[nH]/c(=N\c2ccc(Oc3cccc(F)n3)cc2)n(Cc2ccc(Cl)cc2)c1=O , give its measured IC50 value. 68

Quickly give me recorded IC50 for COc1cn(Cc2ccc(Cl)cc2)c(Nc2ccc(Oc3cccc(C(N)=O)n3)cc2)nc1=O 243

Identify measured IC50 corresponding to O=C1CCCN1C1=CN[C@@H](Nc2ccc(Oc3ccon3)cc2)N(Cc2ccc(Cl)cc2)C1=O 212

Please look at this compound and report its IC50: O=c1c(-c2ncno2)c[nH]/c(=N\c2ccc(Oc3ccon3)cc2)n1Cc1ccc(Cl)cc1 179

---

Molecular target: UniProt P56373
Assay: Evaluation of human P2X3 receptor inhibitory activity (Test Example 1-1, FDSS 3000, 96-well, 50 nM ATP)
Format: cell-based
Settings: human P2X3 receptor in C6BU-1 cells; Test Example 1-1 (compounds I-001 to I-300)
readout-name: pIC50
Would you please state pIC50, meaning minus log10 of the concentration in mol/L, as a bare number?

Supply reported pIC50 belonging to this molecule: O=C(Nc1c[nH]/c(=N\c2ccc(Oc3ccon3)cc2)n(Cc2ccc(Cl)cc2)c1=O)c1ccon1 6.68

Consider the molecule CCn1c(=O)cc(Nc2ccc(Oc3cccc(C#N)n3)cn2)n(Cc2ccc(Cl)cc2)c1=O . State its measured pIC50. 7.72

Look up pIC50 of CCc1c[nH]/c(=N\c2ccc(Oc3ncc(C(=O)O)s3)cc2)n(Cc2ccc(Cl)cc2)c1=O and report it. 7.54

Supply reported pIC50 belonging to this molecule: CCOC(=O)c1c[nH]/c(=N\c2ccc(Oc3ccc(F)cn3)cc2)n(Cc2ccc(Cl)cc2)c1=O 7.46

Specify measured pIC50 for CCC(=O)Nc1c[nH]/c(=N\c2ccc(Oc3cccc(F)n3)cc2)n(Cc2ccc(Cl)cc2)c1=O . 7.96

Using known records, supply pIC50 for CCc1oc2ccc(Nc3ncc(NC(C)=O)c(=O)n3Cc3ccc(Cl)cc3)cc2c1C 6.77

Query pIC50 for O=C(NC1CCOCC1)c1cn(Cc2ccc(Cl)cc2)c(Nc2ccc(Oc3cccc(F)n3)cc2)nc1=O 8.22

// fetch pIC50 given entry CCOC(=O)/N=C(\NC)Nc1c[nH]/c(=N\c2ccc(Oc3ccon3)cc2)n(Cc2ccc(Cl)cc2)c1=O 6.00

Return reported pIC50. Input molecule: NC(=O)c1cccc(Oc2ccc(Nc3ncc(NC(=O)C4CCOCC4)c(=O)n3Cc3ccc(Cl)cc3)cc2)n1 8.70

Provide pIC50 value for the following molecule: C=C(C)c1c[nH]/c(=N\c2ccc(Oc3cccc(C#N)n3)cc2)n(Cc2ccc(Cl)cc2)c1=O 6.95

Note pIC50 for the molecule shown: Cc1noc(-c2cn(Cc3ccc(Cl)cc3)/c(=N/c3ccc(Oc4cccc(F)n4)cc3)[nH]c2=O)n1 8.22

Consider the molecule N#C/N=C(/Nc1c[nH]/c(=N\c2ccc(Oc3ccon3)cc2)n(Cc2ccc(Cl)cc2)c1=O)Oc1ccccc1 and give its recorded pIC50. 6.66

Hello, please tell me recorded pIC50 for this one: CCc1oc2ccc(/N=c3\[nH]cc(CC(C)=O)c(=O)n3Cc3ccc(Cl)cc3)cc2c1C 6.57

Answer with reported pIC50 of CCCn1c(=O)cc(Nc2ccc(Oc3cccc(C(=O)OC)c3)cc2)n(Cc2ccc(Cl)cc2)c1=O 6.80

Give pIC50 for O=C(Nc1c[nH]/c(=N\c2ccc(Oc3ccon3)cc2)n(Cc2ccc(Cl)cc2)c1=O)c1cocn1 7.07

---

Biological target: human P2X3 receptor (Homo sapiens (Human), UniProt P56373)
Assay: Evaluation of human P2X3 receptor inhibitory activity (Test Example 1-2, FLIPR 384, 384-well, 150 nM ATP)
Format: cell-based
Settings: C6BU-1 cell transfected with human P2X3 receptor gene; method of Test Example 1-2 (compounds I-301 to I-483); read-out: IC50 (human P2X3 receptor inhibitory activity)
Provide the reported IC50 of each item.

Specify reported IC50 for the compound shown: CSc1ncc(Nc2ccc(Oc3ccc(F)cn3)cc2)c(Cc2ccc(F)cc2)n1 [Compound I-479] < 30 µM

State, in one line, measured IC50 of O=C(O)c1cccc(Oc2ccc(Nc3nc4ccccc4n3Cc3ccc(Cl)cc3)cc2)n1 [Compound I-455] < 30 µM

Entry CN(C)c1ccc(Nc2ccc(Oc3ccc(F)cn3)cc2)c(Cc2ccc(Cl)cc2)c1 [Compound I-464] needs its IC50 filled in; supply it. < 30 µM

Dear colleague, please send me the reported IC50 for O=C(O)c1cn(Cc2ccc(Cl)cc2)c2cc(Nc3ccc(Oc4ccc(F)cn4)cc3)ccc2c1=O [Compound I-461] when you can. < 30 µM

Please report IC50 for the following compound: COC(=O)c1cccc(Oc2ccc(Nc3ccn(C(C)C)c(=O)c3Cc3ccc(Cl)cc3)cc2)n1 [Compound I-465] < 30 µM

Write down IC50 measured for item O=C(O)c1cccc(Oc2ccc(Nc3nc4ccccc4n3Cc3ccc(F)cc3)cc2)n1 [Compound I-470] < 30 µM

Provide IC50 value for the following compound: O=c1cc[nH]/c(=N\c2ccc(Oc3ccon3)cc2)n1Cc1ccc(Cl)cc1 [Compound I-447] < 30 µM

Give the reported IC50 for this compound. CC(C)n1ccc(Nc2ccc(Oc3cccc(C(N)=O)n3)cc2)c(Cc2ccc(Cl)cc2)c1=O [Compound I-467] < 30 µM

---

Target: human P2X3 receptor (Homo sapiens (Human))
Assay: Evaluation of human P2X3 receptor inhibitory activity (Test Example 1-2, FLIPR 384, 384-well, 150 nM ATP)
Type: cell-based
Settings: human P2X3 receptor in C6BU-1 cells; Test Example 1-2 (compounds I-301 to I-483); read-out: P2X3 IC50
Kindly supply the reported IC50 values for the records listed here.
Dear colleague, please return just the value in nM, with no unit written.

Supply reported IC50 belonging to this molecule: Cc1cc(CNC(=O)c2cn(Cc3ccc(Cl)cc3)c(Nc3ccc(Oc4cccc(F)n4)cc3)nc2=O)no1 88

Tell me its IC50 given COc1cn(Cc2ccc(Cl)cc2)c(Nc2ccc(Oc3cccc(C#N)n3)cc2)nc1=O as the entry. 405

Return reported IC50. Input molecule: CCn1c(=O)[nH]c(Nc2ccc(Oc3cccc(C#N)n3)cc2)c(Cc2ccc(Cl)cc2)c1=O 9

Give the reported IC50 for this molecule. CCOC(=O)c1cnc(Oc2ccc(/N=c3\[nH]cc(-c4nc(C)no4)c(=O)n3Cc3ccc(Cl)cc3)cc2)s1 31

Given the molecule Cc1nc(Nc2cc(=O)n(CC(C)(C)C(=O)O)c(=O)n2Cc2ccc(Cl)cc2)ccc1Oc1ccc(F)cn1 , write its reported IC50. 5

Kindly indicate its recorded IC50. Item: Cc1nc(Nc2cc(=O)n(CC(C)(C)C(=O)O)c(=O)n2C[C@H]2CC[C@H](C)CC2)ccc1Oc1ccc(F)cn1 7

Entry Cc1nnc(-c2c[nH]/c(=N\c3ccc(Oc4cccc(C(N)=O)n4)cc3)n(Cc3ccc(Cl)cc3)c2=O)o1 needs its IC50 filled in; supply it. 20

---

Please go through the items and note down their IC50.
Molecular target: human P2X3 receptor (Homo sapiens (Human))
Assay: Evaluation of human P2X3 receptor inhibitory activity (Test Example 1-2, FLIPR 384, 384-well, 150 nM ATP)
Type: cell-based
Conditions: human P2X3 receptor in C6BU-1 cells; Test Example 1-2 (compounds I-301 to I-483); read-out: P2X3 IC50
Units required after the number.

Identify measured IC50 corresponding to CNC(=O)c1noc(-c2c[nH]/c(=N\c3ccc(Oc4ccon4)cc3)n(Cc3ccc(Cl)cc3)c2=O)n1 80 nM

State its IC50 for this molecule: O=C(O)c1cccc(Oc2ccc(/N=c3\[nH]cc(N4CCCC4=O)c(=O)n3Cc3ccc(Cl)cc3)cc2)n1 41 nM

Give IC50 for the following molecule: N#Cc1cccc(Oc2ccc(/N=c3\[nH]cc(N4CCCC4=O)c(=O)n3Cc3ccc(Cl)cc3)cc2)n1 179 nM

Read the entry COC(=O)c1ccc(Oc2ccc(/N=c3\[nH]cc(-c4nc(C)no4)c(=O)n3Cc3ccc(Cl)cc3)cc2)nn1 and write its reported IC50. 7 nM

# return recorded IC50 for entry Cc1noc(-c2c[nH]/c(=N\c3ccc(Oc4cccc(C#N)n4)cc3)n(Cc3ccc(Cl)cc3)c2=O)n1 16 nM

Please give measured IC50 of the following entry: C=CCNC(=O)c1c[nH]/c(=N\c2ccc(Oc3ccon3)cc2)n(Cc2ccc(Cl)cc2)c1=O 21 nM

Quickly give me recorded IC50 for O=C(NCC(=O)N1CCCCC1)c1cn(Cc2ccc(Cl)cc2)c(Nc2ccc(Oc3cccc(F)n3)cc2)nc1=O 9 nM

Recall and state the measured IC50 for CCC(=O)Nc1c[nH]/c(=N\c2ccc(Oc3cccc(CC(=O)O)c3)cc2)n(Cc2ccc(Cl)cc2)c1=O . 53 nM

Return the recorded IC50 value; entry: O=C(NCc1ccoc1)c1cn(Cc2ccc(Cl)cc2)c(Nc2ccc(Oc3cccc(F)n3)cc2)nc1=O 55 nM

Dear colleague, please send me the reported IC50 for C[C@@H](C(=O)O)[C@H](C)n1c(=O)cc(Nc2ccc(Oc3ccc(F)cn3)cc2)n(Cc2ccc(Cl)cc2)c1=O when you can. 11 nM

Let me know recorded IC50 for Cc1noc(-c2c[nH]/c(=N\c3ccc(Oc4ccc(C(N)=O)nn4)cc3)n(Cc3ccc(Cl)cc3)c2=O)n1 , thanks. 10 nM

Indicate its recorded IC50; the molecule in question is CCC(=O)Nc1c[nH]/c(=N\c2ccc(Oc3ccc(C(F)(F)F)nn3)cc2)n(Cc2ccc(Cl)cc2)c1=O 10 nM

Supply measured IC50 of NC(=O)c1cccc(Oc2ccc(/N=c3\[nH]cc(C4CCOCC4)c(=O)n3Cc3ccc(Cl)cc3)cc2)n1 in your reply. 17 nM

Fill in IC50 for record Cc1nc(Nc2cc(=O)n([C@@H](C)[C@@H](C)C(=O)O)c(=O)n2Cc2ccc(Cl)cc2)ccc1Oc1ccc(F)nc1 9 nM
